- run.description: Proportions of cis and trans at the photostationary state in DMSO from absorbance spectra (Ernst Fischer method)
- Assay type: physicochemical
- condition.description: 365 nm

# molecule, %trans at the photostationary state
data = [
    ("COC(=O)c1ccc(-c2cccc(/N=N/c3ccc(OCC(O)C(C)(C)C)c(C)c3)c2)c(C)c1 (stereo not drawn) [Compound 10c]", "3,00%"),
    ("Cc1cc(/N=N/c2cccc(-c3ccc(C(=O)O)cc3)c2)ccc1OCC(O)C(C)(C)C (stereo not drawn) [Compound 11a]", "5,48%"),
    ("Cc1cc(/N=N/c2cccc(-c3ccc(CO)cc3C)c2)ccc1OCC(O)C(C)(C)C (stereo not drawn) [Compound 12c]", "3,05%"),
    ("COC(=O)c1ccc(-c2cccc(/N=N/c3ccc(OCC(O)C(C)(C)C)cc3C)c2)c(C)c1 (stereo not drawn) [Compound 10d]", "3,70%"),
    ("Cc1cc(OCC(O)C(C)(C)C)ccc1/N=N/c1cccc(-c2ccc(CO)cc2C)c1 (stereo not drawn) [Compound 12d]", "3,08%"),
    ("COC(=O)c1ccc(-c2cccc(/N=N/c3ccc(OCC(O)C(C)(C)C)c(C)c3)c2)cc1 (stereo not drawn) [Compound 10a]", "6,30%"),
    ("Cc1cc(OCC(O)C(C)(C)C)ccc1N=Nc1cccc(-c2ccc(C(=O)O)cc2)c1 (stereo not drawn) [Compound 11b]", "3,13%"),
    ("Cc1cc(/N=N/c2cccc(-c3ccc(C(=O)O)cc3C)c2)ccc1OCC(O)C(C)(C)C (stereo not drawn) [Compound 11c]", "2,78%"),
    ("COC(=O)c1ccc(-c2cccc(/N=N/c3ccc(OCC(O)C(C)(C)C)cc3C)c2)cc1 (stereo not drawn) [Compound 10b]", "2,74%"),
    ("Cc1cc(/N=N/c2cccc(-c3ccc(CO)cc3)c2)ccc1OCC(O)C(C)(C)C (stereo not drawn) [Compound 12a]", "2,94%"),
    ("Cc1cc(OCC(O)C(C)(C)C)ccc1/N=N/c1cccc(-c2ccc(CO)cc2)c1 (stereo not drawn) [Compound 12b]", "3,81%"),
    ("Cc1cc(OCC(O)C(C)(C)C)ccc1/N=N/c1cccc(-c2ccc(C(=O)O)cc2C)c1 (stereo not drawn) [Compound 11d]", "3,21%"),
]

###

- run.description: Proportions of cis and trans at the photostationary state in DMSO from absorbance spectra (Ernst Fischer method)
- Type: physicochemical
- condition.description: 405 nm
Below: a set of entries, each annotated with reported %cis at the photostationary state.
experimental.endpoint: %cis at the photostationary state

# molecule, experimental.endpoint, data.value
rows = [
    ("COC(=O)c1ccc(-c2cccc(/N=N/c3ccc(OCC(O)C(C)(C)C)cc3C)c2)cc1 (centres unmarked) [Compound 10b]", "%cis at the photostationary state", "66,00%"),
    ("COC(=O)c1ccc(-c2cccc(/N=N/c3ccc(OCC(O)C(C)(C)C)cc3C)c2)c(C)c1 (centres unmarked) [Compound 10d]", "%cis at the photostationary state", "62,22%"),
    ("Cc1cc(/N=N/c2cccc(-c3ccc(CO)cc3C)c2)ccc1OCC(O)C(C)(C)C (centres unmarked) [Compound 12c]", "%cis at the photostationary state", "59,74%"),
    ("Cc1cc(OCC(O)C(C)(C)C)ccc1/N=N/c1cccc(-c2ccc(CO)cc2)c1 (centres unmarked) [Compound 12b]", "%cis at the photostationary state", "62,30%"),
    ("COC(=O)c1ccc(-c2cccc(/N=N/c3ccc(OCC(O)C(C)(C)C)c(C)c3)c2)c(C)c1 (centres unmarked) [Compound 10c]", "%cis at the photostationary state", "61,14%"),
    ("Cc1cc(OCC(O)C(C)(C)C)ccc1/N=N/c1cccc(-c2ccc(C(=O)O)cc2C)c1 (centres unmarked) [Compound 11d]", "%cis at the photostationary state", "61,42%"),
    ("Cc1cc(/N=N/c2cccc(-c3ccc(C(=O)O)cc3C)c2)ccc1OCC(O)C(C)(C)C (centres unmarked) [Compound 11c]", "%cis at the photostationary state", "61,36%"),
    ("COC(=O)c1ccc(-c2cccc(/N=N/c3ccc(OCC(O)C(C)(C)C)c(C)c3)c2)cc1 (centres unmarked) [Compound 10a]", "%cis at the photostationary state", "60,42%"),
]
